System: EGFR V3 (Homo sapiens, UniProt P00533, DELINS30-297G)
Construct: expressed in transfected cells; host or cells: BaF3 (murine pro-B), retroviral pMXs-IRES-Blasticidin
Sequence (P00533 with tags, fused parts or gaps DELINS30-297G): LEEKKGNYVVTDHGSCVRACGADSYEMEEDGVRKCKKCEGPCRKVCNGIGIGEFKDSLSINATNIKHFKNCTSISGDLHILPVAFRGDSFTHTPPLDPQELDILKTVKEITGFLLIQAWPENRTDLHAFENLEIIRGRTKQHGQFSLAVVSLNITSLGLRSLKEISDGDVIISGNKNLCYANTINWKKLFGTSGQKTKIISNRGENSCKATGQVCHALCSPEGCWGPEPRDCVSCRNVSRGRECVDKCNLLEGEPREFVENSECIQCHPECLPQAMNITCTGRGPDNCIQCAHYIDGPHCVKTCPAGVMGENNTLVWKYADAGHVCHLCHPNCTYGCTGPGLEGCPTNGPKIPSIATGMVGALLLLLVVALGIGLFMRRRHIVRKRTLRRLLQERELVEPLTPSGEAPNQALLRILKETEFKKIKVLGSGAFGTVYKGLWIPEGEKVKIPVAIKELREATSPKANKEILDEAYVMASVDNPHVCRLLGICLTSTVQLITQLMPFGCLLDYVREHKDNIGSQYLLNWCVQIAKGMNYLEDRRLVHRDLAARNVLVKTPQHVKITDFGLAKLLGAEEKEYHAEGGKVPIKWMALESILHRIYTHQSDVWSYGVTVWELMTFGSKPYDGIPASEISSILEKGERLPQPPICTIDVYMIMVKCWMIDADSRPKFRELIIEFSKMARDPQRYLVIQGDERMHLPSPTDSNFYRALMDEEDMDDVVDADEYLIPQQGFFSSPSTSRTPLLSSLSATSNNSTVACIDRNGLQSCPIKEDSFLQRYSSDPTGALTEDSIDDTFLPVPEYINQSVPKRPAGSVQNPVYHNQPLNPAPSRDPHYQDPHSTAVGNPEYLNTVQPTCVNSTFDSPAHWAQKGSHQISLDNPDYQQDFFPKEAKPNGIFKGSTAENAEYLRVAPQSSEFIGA
Protocol text: Activity for inhibiting EGFR (Table A), EGFR V3 (EGFR-Viii)
Assay type: cell-based
Setup conditions: read-out: EGFR V3, potency code (IC50)
pIC50: −log10 of the molar value.
Observation type: pIC50

Before answering, review these 2 worked examples.
> print(dat)
                                   compound           val
1  C=CC(=O)Nc1cc2c(Nc3ccc(OCc4cccnn4)c(Cl)c3)ncnc2cc1OCCN1CCN(C)CC1 [compound 172]  6.70 to 7.00
2  C=CC(=O)Nc1cc2c(Nc3ccc(OCc4ccccn4)cn3)ncnc2cc1OC1CCN(C)C1 (stereo not shown) [compound 61]  6.30 to 6.52

Q: Entry under review: C=CC(=O)Nc1cc2c(Nc3ccc(OCc4cccc(F)n4)c(Cl)c3)ncnc2cc1OCCCN1C[C@@H]2C[C@H]1CO2 [compound 161] . Reported pIC50?
A: 7.30 to 7.52

Q: Entry under review: C=CC(=O)Nc1cc2c(Nc3ccc(OCc4cccc(F)n4)c(Cl)c3)ncnc2cc1OCCCN1C[C@H]2C[C@@H]1CO2 [compound 162] . Reported pIC50?
A: 7.30 to 7.52

Q: Entry under review: CC#CC(=O)Nc1cc2c(Nc3ccc(Oc4ccccc4)cc3)ncnc2cc1C#C[C@@H]1[C@H]2CN(C)C[C@@H]12 [compound 108] . Reported pIC50?
A: 6.70 to 7.00

Q: Entry under review: C=CC(=O)Nc1cc2c(Nc3ccc(OCc4ccccn4)c(Cl)c3)ncnc2cc1OC1CCN(C)CC1 [compound 110] . Reported pIC50?
A: 7.52 to 7.70

Q: Entry under review: C=CC(=O)Nc1cc2c(Nc3ccc(OCc4ccccn4)c(Cl)c3)ncnc2cc1OCCN1CCC1 [compound 33] . Reported pIC50?
A: 7.52 to 7.70

###

# IC50 listing for each entry below
System: EGFR V3 (Homo sapiens, UniProt P00533, DELINS30-297G)
Construct: expressed in transfected cells; host or cells: BaF3 (murine pro-B), retroviral pMXs-IRES-Blasticidin
Protocol text: BaF3 cell proliferation assay, EGFR V3 (Table A)
Format: cell-based
Setup conditions: potency code, 3 days, CellTiterGlo, read-out: EGFR V3 (Activity for Inhibiting EGFR)

Before answering, review these 3 worked examples.
> print(dat)
                                   compound                                    system             val
1  C=CC(=O)Nc1cc2c(Nc3ccc(OCc4cccc(C)n4)c(Cl)c3)ncnc2cc1OCCCN1CC(OC)C1  EGFR V3 (Homo sapiens, UniProt P00533, DELINS30-297G)  0.05 to 0.1 µM
2  C=CC(=O)Nc1cc2c(Nc3ccc(OCc4ccccn4)c(Cl)c3)ncnc2cc1N1CCC(N(C)C)C1 (stereo not drawn)  EGFR V3 (Homo sapiens, UniProt P00533, DELINS30-297G)   0.1 to 0.2 µM
3  C=CC(=O)Nc1cc2c(Nc3cc(Cl)c(OCc4cccc(F)c4)cc3F)ncnc2cc1OCCCN1CC(OC)C1  EGFR V3 (Homo sapiens, UniProt P00533, DELINS30-297G)   0.1 to 0.2 µM

Q: Entry under review: C=CC(=O)Nc1cc2c(Nc3ccc(OCc4ccccn4)c(Cl)c3)ncnc2cc1OCCN1CCN(C)CC1 . Reported IC50?
A: 0.01 to 0.02 µM

Q: Entry under review: C=CC(=O)Nc1cc2c(Nc3ccc(OCc4cnccn4)c(Cl)c3)ncnc2cc1OCCN1CCN(C)CC1 . Reported IC50?
A: 0.03 to 0.05 µM

Q: Entry under review: C=CC(=O)Nc1cc2c(Nc3ccc(OCc4ccccn4)cc3)ncnc2cc1OCC1COCCN1 (stereo not drawn) . Reported IC50?
A: 0.05 to 0.1 µM

Q: Entry under review: C=CC(=O)Nc1cc2c(Nc3ccc(OCc4ccccn4)c(Cl)c3)ncnc2cc1N1CC2CN(C)CC2C1 (stereo not drawn) . Reported IC50?
A: 0.03 to 0.05 µM

###

System: HER2 S310F (Homo sapiens, UniProt P04626, S310F)
Construct: expressed in transfected cells; host or cells: BaF3 (murine pro-B)
Sequence (P04626 23-1255 S310F): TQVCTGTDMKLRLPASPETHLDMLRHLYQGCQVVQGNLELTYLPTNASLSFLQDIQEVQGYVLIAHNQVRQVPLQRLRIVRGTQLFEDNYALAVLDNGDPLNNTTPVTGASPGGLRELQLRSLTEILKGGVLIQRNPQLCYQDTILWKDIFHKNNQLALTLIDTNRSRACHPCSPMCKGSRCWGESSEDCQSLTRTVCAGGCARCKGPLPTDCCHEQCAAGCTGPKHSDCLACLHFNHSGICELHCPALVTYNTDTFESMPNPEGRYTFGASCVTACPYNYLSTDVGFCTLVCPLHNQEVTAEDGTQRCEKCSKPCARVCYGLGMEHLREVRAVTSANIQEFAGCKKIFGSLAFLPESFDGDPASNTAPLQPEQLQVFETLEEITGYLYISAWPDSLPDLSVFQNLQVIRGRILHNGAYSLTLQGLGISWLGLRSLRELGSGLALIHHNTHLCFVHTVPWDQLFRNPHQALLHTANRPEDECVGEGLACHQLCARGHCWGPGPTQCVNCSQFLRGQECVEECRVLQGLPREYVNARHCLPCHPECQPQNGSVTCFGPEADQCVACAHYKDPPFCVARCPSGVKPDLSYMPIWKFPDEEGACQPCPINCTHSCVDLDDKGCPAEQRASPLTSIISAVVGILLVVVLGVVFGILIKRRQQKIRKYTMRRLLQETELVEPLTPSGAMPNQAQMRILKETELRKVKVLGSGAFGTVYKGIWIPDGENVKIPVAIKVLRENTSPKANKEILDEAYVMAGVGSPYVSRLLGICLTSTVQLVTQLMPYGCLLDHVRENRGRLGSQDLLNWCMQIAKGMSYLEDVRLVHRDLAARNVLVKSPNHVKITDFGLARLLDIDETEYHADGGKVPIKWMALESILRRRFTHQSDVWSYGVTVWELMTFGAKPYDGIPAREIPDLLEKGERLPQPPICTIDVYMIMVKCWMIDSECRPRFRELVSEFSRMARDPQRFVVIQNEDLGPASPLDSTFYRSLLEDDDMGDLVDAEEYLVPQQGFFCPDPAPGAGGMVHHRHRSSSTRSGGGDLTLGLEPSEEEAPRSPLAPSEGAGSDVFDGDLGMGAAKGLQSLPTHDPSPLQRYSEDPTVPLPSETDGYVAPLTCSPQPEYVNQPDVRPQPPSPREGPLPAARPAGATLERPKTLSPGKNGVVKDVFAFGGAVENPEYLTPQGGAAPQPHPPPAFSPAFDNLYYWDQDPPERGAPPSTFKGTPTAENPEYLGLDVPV
Protocol text: Activity for inhibiting HER2 (Table B), HER2 S310F
Assay type: cell-based
Setup conditions: read-out: HER2 S310F, potency code (IC50)
pIC50: −log10 of the molar value.
# pIC50 listing for each entry below

Before answering, review these 3 worked examples.
> print(dat)
                                   compound  observation.type           val
1  C=CC(=O)Nc1cc2c(Nc3ccc(OCc4ccccn4)c(Cl)c3)ncnc2cc1OC1CCNC1 (stereo not shown)             pIC50  6.70 to 7.00
2  CC#CC(=O)Nc1cc2c(Nc3cc(Cl)c(OCc4cccc(F)c4)cc3F)ncnc2cc1O[C@@H]1CCN(C)C1             pIC50  7.70 to 8.00
3  C=CC(=O)Nc1cc2c(Nc3ccc(OCc4ncccn4)c(Cl)c3)ncnc2cc1OCCCN1CCOCC1             pIC50  7.30 to 7.52

# input for lookup
Q: Entry under review: C=CC(=O)Nc1cc2c(Nc3ccc(OCc4cccc(F)c4)c(Cl)c3)ncnc2cc1OCCN1CCOCC1 . Reported pIC50?
A: 7.52 to 7.70

###

System: EGFR V3 (Homo sapiens, UniProt P00533, DELINS30-297G)
Construct: expressed in transfected cells; host or cells: BaF3 (murine pro-B), retroviral pMXs-IRES-Blasticidin
Protocol text: Activity for inhibiting EGFR (Table A), EGFR V3 (EGFR-Viii)
Type: cell-based
Setup conditions: read-out: EGFR V3, potency code (IC50)
Observation type: IC50

Before answering, review these 6 worked examples.
> print(dat)
                                   molecule            val
1  C=CC(=O)Nc1cc2c(Nc3ccc(OCc4ccccn4)c(Cl)c3)ncnc2cc1N1CC2CN(C)CC2C1 (stereo not drawn)    30 to 50 nM
2  C=CC(=O)Nc1cc2c(Nc3ccc(OCc4ccccn4)c(Cl)c3)ncnc2cc1N1CCC(N(C)C)CC1    30 to 50 nM
3  C=CC(=O)Nc1cc2c(Nc3ccc(OCc4ccccn4)c(Cl)c3)ncnc2cc1OCCN(C)C1CC1    30 to 50 nM
4  C=CC(=O)Nc1cc2c(Nc3ccc(OCc4ccccn4)c(Cl)c3)ncnc2cc1N1CC(N2CCOCC2)C1  100 to 200 nM
5  C=CC(=O)Nc1cc2c(Nc3ccc(OCc4ccccn4)c(Cl)c3)ncnc2cc1O[C@H]1CCN(C)C1    20 to 30 nM
6  C=CC(=O)Nc1cc2c(Nc3ccc(OCc4ccccn4)c(Cl)c3)ncnc2cc1C#CC(C)(C)N1CCCC1    20 to 30 nM

Q: Entry under review: C=CC(=O)Nc1cc2c(Nc3ccc(OCc4ccccn4)c(Cl)c3)ncnc2cc1OCCN1CCC(OC)C1 (stereo not drawn) . Reported IC50?
A: 20 to 30 nM

Q: Entry under review: C=CC(=O)Nc1cc2c(Nc3ccc(Oc4cccnc4)cc3)ncnc2cc1OCCN1CCOCC1 . Reported IC50?
A: 100 to 200 nM

Q: Entry under review: C=CC(=O)Nc1cc2c(Nc3ccc(OCc4cccc(C)n4)c(Cl)c3)ncnc2cc1OCCCN1CC(OC)C1 . Reported IC50?
A: 50 to 100 nM

Q: Entry under review: C=CC(=O)Nc1cc2c(Nc3cc(Cl)c(OCc4ccccn4)cc3F)ncnc2cc1OCCN1CCOCC1 . Reported IC50?
A: 10 to 20 nM

Q: Entry under review: C=CC(=O)Nc1cc2c(Nc3ccc(OCc4ccccn4)c(Cl)c3)ncnc2cc1OC[C@H]1CCN(C)C1 . Reported IC50?
A: 10 to 20 nM

Q: Entry under review: C=CC(=O)Nc1cc2c(Nc3ccc(Oc4ccc(Cl)cc4)cc3)ncnc2cc1OCCN1CCOCC1 . Reported IC50?
A: 50 to 100 nM

Q: Entry under review: CC#CC(=O)Nc1cc2c(Nc3ccc(OCc4ccncn4)c(Cl)c3)ncnc2cc1OCCCN1CCOCC1 . Reported IC50?
A: 50 to 100 nM

Q: Entry under review: C=CC(=O)Nc1cc2c(Nc3ccc(OCc4ccccn4)c(Cl)c3)ncnc2cc1OC1CN(C)C1 . Reported IC50?
A: 200 to 300 nM

Q: Entry under review: C=CC(=O)Nc1cc2c(Nc3ccc(OCc4ncccn4)c(Cl)c3)ncnc2cc1OCCCN1CCOCC1 . Reported IC50?
A: 30 to 50 nM

###

System: HER2 S310F (HER2-S310F) (Homo sapiens, UniProt P04626, S310F)
Sequence (P04626 23-1255 S310F): as above
Protocol text: BaF3 panel Cell Titer Glo proliferation, HER2 S310F (Example 3)
Setup conditions: BaF3 transformant, 72 hours, FIG. 21; read-out: IC50, HER2-S10F
Method: To determine the ability of Compound No. 6 to target wild type HER2, wild type EGFR, and relevant mutants of each, a panel of BaF3 cell lines and the A431 cell line were dosed and assessed in cell proliferation assays. The BaF3 parental cell line is normally dependent on IL-3 for proliferation, but when transformed with active tyrosine kinase can grow in the absence of IL-3. […] Proliferation was assessed using the Cell Titer Glo cell proliferation kit (Promega # G7573). […]
pIC50: −log10 of the molar value.
Observation type: pIC50

Q: Entry under review: C=CC(=O)Nc1cc2c(Nc3cc(Cl)c(OCc4cccc(F)c4)cc3F)ncnc2cc1OCCN1CCOCC1 [compound 6] . Reported pIC50?
A: > 7.00
